These measurements were taken from patent US12479830B2.

A short record of pKi observed with Human σ1 receptor (Homo sapiens) follows.
Sequence (Q99720 whole entry): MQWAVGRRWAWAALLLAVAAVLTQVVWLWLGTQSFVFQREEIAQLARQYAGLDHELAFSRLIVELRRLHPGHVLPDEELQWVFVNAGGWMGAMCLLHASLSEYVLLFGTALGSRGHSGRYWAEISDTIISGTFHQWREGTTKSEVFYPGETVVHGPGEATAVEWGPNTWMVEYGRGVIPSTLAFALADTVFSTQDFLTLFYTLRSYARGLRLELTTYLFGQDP
pKi: −log10 of the molar value.

A selection of reference data follows.
Param readout = pKi; param system = Human σ1 receptor (Homo sapiens); param query = CCC[C@@H](c1nc2ccc(Br)cc2c(=O)n1CC)N1CCN(C)C[C@@H](COC)C1 [Example 108] ; response: value
6.00 to 6.30

Param readout = pKi; param system = Human σ1 receptor (Homo sapiens); param query = CCC[C@H](c1nc2ccc(Cl)cc2c(=O)n1C)N1CCCN[C@H](C)C1 [Example 147] ; response: value
> 6.30

Param readout = pKi; param system = Human σ1 receptor (Homo sapiens); param query = CCC[C@H](c1nc2ccc(Br)cc2c(=O)n1CC)N1CCCN(CC)CC1 [Example 153] ; response: value
> 6.30

---
Param readout = pKi; param system = Human σ1 receptor (Homo sapiens); param query = CCCC(c1nc2c(Cl)cc(Br)cc2c(=O)n1CC)N1CCCN(C)CC1 (centres unmarked) [Example 49] ; response: value
6.00 to 6.30

###

Each entry below carries its recorded Ki.
target: Human α2δ-1 subunit of Cav2.2 calcium channel (Homo sapiens, UniProt P54289); assay: Human α2δ-1 subunit of Cav2.2 calcium channel assay ([3H]-gabapentin binding); conditions: binding to the α2δ-1 subunit of voltage-gated calcium channels, expressed as Ki class; + also covers inhibition between 1% and 50%
Sequence (P54289 25-1103): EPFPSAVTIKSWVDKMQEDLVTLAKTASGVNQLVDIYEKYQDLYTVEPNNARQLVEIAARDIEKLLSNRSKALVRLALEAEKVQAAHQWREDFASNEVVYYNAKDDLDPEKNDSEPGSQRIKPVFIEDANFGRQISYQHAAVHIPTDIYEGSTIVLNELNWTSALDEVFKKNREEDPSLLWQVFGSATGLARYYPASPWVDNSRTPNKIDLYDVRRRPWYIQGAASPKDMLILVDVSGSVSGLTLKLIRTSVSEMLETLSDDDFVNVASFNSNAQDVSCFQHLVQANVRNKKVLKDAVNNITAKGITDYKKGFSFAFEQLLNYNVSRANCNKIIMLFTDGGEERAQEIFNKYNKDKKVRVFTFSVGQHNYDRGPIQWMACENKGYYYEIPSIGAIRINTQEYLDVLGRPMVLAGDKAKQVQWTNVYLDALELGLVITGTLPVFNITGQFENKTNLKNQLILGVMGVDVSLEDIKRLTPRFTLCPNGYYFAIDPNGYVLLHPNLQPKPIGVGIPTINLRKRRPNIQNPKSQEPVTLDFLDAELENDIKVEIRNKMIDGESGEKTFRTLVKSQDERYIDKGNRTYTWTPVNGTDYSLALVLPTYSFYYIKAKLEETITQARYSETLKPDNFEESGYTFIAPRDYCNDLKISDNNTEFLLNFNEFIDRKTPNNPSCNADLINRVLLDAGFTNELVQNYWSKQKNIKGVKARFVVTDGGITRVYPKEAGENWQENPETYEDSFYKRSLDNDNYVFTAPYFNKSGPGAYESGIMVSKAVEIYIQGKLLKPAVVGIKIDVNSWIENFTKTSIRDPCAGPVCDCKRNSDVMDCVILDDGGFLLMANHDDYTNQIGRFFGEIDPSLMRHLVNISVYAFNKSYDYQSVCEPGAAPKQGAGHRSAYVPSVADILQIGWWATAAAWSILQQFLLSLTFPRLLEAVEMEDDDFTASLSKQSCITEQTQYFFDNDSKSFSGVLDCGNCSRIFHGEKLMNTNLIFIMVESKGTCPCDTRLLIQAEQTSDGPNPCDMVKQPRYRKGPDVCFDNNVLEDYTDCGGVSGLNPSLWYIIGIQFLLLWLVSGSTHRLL

A selection of reference data follows.
Param readout = Ki; param system = Human α2δ-1 subunit of Cav2.2 calcium channel (Homo sapiens, UniProt P54289); param query = CCC[C@H](c1nc2cc(F)c(F)cc2c(=O)n1CC)N1CCCN(C)CC1 ; response: value
< 500 nM

Param readout = Ki; param system = Human α2δ-1 subunit of Cav2.2 calcium channel (Homo sapiens, UniProt P54289); param query = CCC[C@H](c1nc2cc(F)c(OC)cc2c(=O)n1CC)N1CCNC[C@@H](C)C1 ; response: value
< 500 nM

Param readout = Ki; param system = Human α2δ-1 subunit of Cav2.2 calcium channel (Homo sapiens, UniProt P54289); param query = CCC[C@H](c1nc2ncc(Br)cc2c(=O)n1CC)N1CCCN(CC)CC1 ; response: value
> 5000 nM

---
Param readout = Ki; param system = Human α2δ-1 subunit of Cav2.2 calcium channel (Homo sapiens, UniProt P54289); param query = CCC[C@@H](c1nc2cc(F)c(Cl)cc2c(=O)n1CC)N1CCN(C)C[C@@H](C)C1 ; response: value
> 5000 nM

Param readout = Ki; param system = Human α2δ-1 subunit of Cav2.2 calcium channel (Homo sapiens, UniProt P54289); param query = CCCC(c1nc2ccc(Br)cc2c(=O)n1CC)N1CCCN(CCc2ccccc2)CC1 (centres unmarked) ; response: value
500 to 5000 nM

Param readout = Ki; param system = Human α2δ-1 subunit of Cav2.2 calcium channel (Homo sapiens, UniProt P54289); param query = CCC[C@H](c1nc2ccc(Cl)cc2c(=O)n1C)N1CCCN[C@H](C)C1 ; response: value
< 500 nM

###

Each entry below carries its recorded Ki.
target: Human α2δ-1 subunit of Cav2.2 calcium channel (Homo sapiens, UniProt P54289); assay: Human α2δ-1 subunit of Cav2.2 calcium channel assay ([3H]-gabapentin binding); conditions: binding to the α2δ-1 subunit of voltage-gated calcium channels, expressed as Ki class; + also covers inhibition between 1% and 50%

A selection of reference data follows.
Query: Ki; subject: CCC[C@H](c1nc2c(F)cc(F)cc2c(=O)n1CC)N1CCN[C@@H](C)CC1
500 to 5000 nM

Query: Ki; subject: CCCC(c1nc2ccncc2c(=O)n1CC)N1CCCNCC1 (stereo not drawn)
< 500 nM

Query: Ki; subject: CCCC(c1nc2ccc(Cl)cc2c(=O)n1CC)N1CCCNCC1 (stereo not drawn)
< 500 nM

Query: Ki; subject: CCC[C@H](c1nc2cc(OC)c(F)cc2c(=O)n1CC)N1CCCN(C)CC1
< 500 nM

Query: Ki; subject: CCCC(c1nc2cc(Br)c(F)cc2c(=O)n1CCC)N1CCCN(CC)CC1 (stereo not drawn)
< 500 nM

Proceeding to the next compound to report its Ki.
Query: Ki; subject: CCC[C@H](c1nc2ccc(Br)cc2c(=O)n1CC)N1CCN(C)C[C@H](C)C1
< 500 nM
